- ASSAYED SYSTEM: human muscarinic M4 receptor (Homo sapiens)
- Construct: expressed in transfected cells
- Sequence (P08173 whole entry): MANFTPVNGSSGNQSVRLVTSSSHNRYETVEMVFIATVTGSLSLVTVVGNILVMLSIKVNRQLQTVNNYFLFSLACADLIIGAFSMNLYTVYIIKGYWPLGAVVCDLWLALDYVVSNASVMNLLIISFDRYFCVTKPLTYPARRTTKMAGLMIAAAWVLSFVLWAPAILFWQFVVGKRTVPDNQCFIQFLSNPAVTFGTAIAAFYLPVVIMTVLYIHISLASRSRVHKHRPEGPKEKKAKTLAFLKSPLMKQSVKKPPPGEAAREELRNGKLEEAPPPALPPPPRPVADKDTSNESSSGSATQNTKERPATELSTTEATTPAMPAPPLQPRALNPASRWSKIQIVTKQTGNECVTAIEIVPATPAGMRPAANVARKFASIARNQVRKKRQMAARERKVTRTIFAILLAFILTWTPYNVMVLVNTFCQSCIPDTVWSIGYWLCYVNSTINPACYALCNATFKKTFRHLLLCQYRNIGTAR
- TEST: Alphascreen Surefire phospho-ERK1/2 functional assay, M4
- Type: cell-based
- PARTICULARS: CHO, read-out: % Emax cf. ACh, M4, CHO cells stably expressing human M4; relative to ACh
// Condition not met strictly below 90% in Emax; Condition met otherwise

Previously resolved entries follow.
COMPOUND | LABEL CLASS
CCOC(=O)N1CCC2(CC(N3CCC(N4CC(F)(F)C[C@@H]4C)CC3)C2)C1 (single isomer, unassigned) [2-106 Isomer 2] | Condition met
COC(=O)N1CCC2(CC(N3CCC(c4ncc(C)n4C)CC3)C2)C1 (single isomer, unassigned) [1-9 Isomer 2] | Condition not met
CCOC(=O)N1CCC2(CC(N3CCC([C@@H]4CCCN4C(=O)CCc4ccccn4)CC3)C2)C1 (single isomer, unassigned) [2-62 Isomer 2] | Condition not met

Now look at this entry.
Please indicate if the recorded Emax for COC(=O)N1CCC2(CC(N3CCC(c4ncc(Cl)n4C)CC3)C2)C1 (single isomer, unassigned) [1-13 Isomer 2] meets or exceeds 90%.
Condition not met

The measurements presented in this section are drawn from patent US9926297B2.
